measurement-notes: gradient 5% acetonitrile 3 min, to 50% in 2 min, to 85% in 15 min, held 3 min, 100 µL/min
protocol-conditions: column: Zorbax Extend-C18 2.1 x 50 mm; eluents: water / acetonitrile, 0.1% formic acid
Measured RP-LC retention time of individual entries

| compound | measurement-units | RP-LC retention time |
| --- | --- | --- |
| CCN(CC)c1ccc(NC(=O)CN2C(=O)C(C)(C)c3ccccc32)c(C)c1 | s | 630 |
| Cn1nccc1C(=O)N1CCCC1c1ccccc1Cl (stereo unspecified) | s | 823 |
| Cc1ccc(-n2c(=O)c3c(cc(C)n3C)n(CC(=O)Nc3ccc(Cl)cc3)c2=O)cc1 | s | 910 |
| COCC(=O)NC(Cc1ccccc1)c1nnc(N2CCN(C)CC2)o1 (stereo unspecified) | s | 585 |
| Cc1cc(-c2ccc(C)c(S(=O)(=O)N3CCN(c4ccccn4)CC3)c2)on1 | s | 719 |
| O=C(CN1c2ccc(F)cc2-c2ccccc2S1(=O)=O)Nc1ccccc1 | s | 936 |
| COc1ccc(-c2nc(N(C)C3CCCCC3)c3ccccc3n2)cc1 | s | 918 |
| COc1ccc(S(=O)(=O)N2CC3CN(C(=O)c4cccc(F)c4)CC(C2)O3)cc1 | s | 794 |
| Cn1cc(CN2CCC(C(=O)NCC3CCN(Cc4cccc(F)c4)CC3)CC2)c2ccccc21 | s | 572 |
| O=C1CCCc2nc(N3CCN(c4ccccn4)CC3)nc(Nc3ccccc3)c21 | s | 735 |
| CCCc1cnc2c(c1SC(C(C)=O)C(=O)N(C)C)c(=O)n(C)c(=O)n2C (stereo unspecified) | s | 720 |
| O=C(Nc1cccc(-c2ccc(N3CCCC3)nn2)c1)Nc1c(F)cccc1F | s | 690 |
| O=C(c1ccc(OCC2CCCN2C(=O)COc2ccc(F)cc2)cc1)N1CCOCC1 (stereo unspecified) | s | 778 |
| CCN1C(=O)c2cccnc2Sc2cc(NC(=O)Cc3cccc(F)c3)ccc21 | s | 826 |
| Cc1cc(C)c(C)c(S(=O)(=O)NCC2(c3cccs3)CCOCC2)c1C | s | 1050 |
| Cc1ncsc1CN1CC(Oc2ccc(-c3noc(C4CC4)n3)cc2)C1 | s | 652 |
| O=C(CCC(=O)N1CC2CCCN2c2ccccc21)N1CCN(Cc2ccccc2)CC1 (stereo unspecified) | s | 678 |
| Cc1cccc(NC(=O)C2CC(=O)N(c3ccc4oc(C)nc4c3)C2)c1 (stereo unspecified) | s | 708 |
| COc1ccccc1CC(=O)Nc1ccc(-c2nc(Cn3nc(C)cc3C)c(C)o2)cc1 | s | 924 |
| CC(=O)N1c2ccc(S(=O)(=O)N3CCCCC3)cc2CC1C(=O)NCCC(C)C (stereo unspecified) | s | 822 |
| Cc1cccc(N(C)C(=O)Cc2c(C(=O)O)c(C)cn2C)c1 | s | 739 |

* * *

measurement-notes: gradient 5% acetonitrile 3 min, to 50% in 2 min, to 85% in 15 min, held 3 min, 100 µL/min
protocol-conditions: column: Zorbax Extend-C18 2.1 x 50 mm; eluents: water / acetonitrile, 0.1% formic acid
Measured RP-LC retention time of individual entries
assay-endpoint: RP-LC retention time (s)

| mol-smiles | assay-endpoint | measured-number |
| --- | --- | --- |
| CCOc1ccccc1NC(=O)N1CCC2(CC1)NC(=O)c1cc(F)ccc1N2C | RP-LC retention time | 817 |
| COc1ccc(N2Cc3cccc(C(=O)O)c3C2=O)cc1 | RP-LC retention time | 816 |
| CCN1c2ccccc2C(=O)NC12CCN(C(=O)c1cccc(C)c1)CC2 | RP-LC retention time | 805 |

* * *

measurement-notes: gradient 5% acetonitrile 3 min, to 50% in 2 min, to 85% in 15 min, held 3 min, 100 µL/min
protocol-conditions: column: Zorbax Extend-C18 2.1 x 50 mm; eluents: water / acetonitrile, 0.1% formic acid

| compound | RP-LC retention time / s |
| --- | --- |
| COc1cccc(C(=O)NCCCS(=O)(=O)N2CCN(c3ccccc3)CC2)c1OC | 810 |
| COc1ccc(OC)c(S(=O)(=O)NC(C)c2ccccc2)c1 (configuration not stated) | 845 |
| COc1ccc(N2CCN(c3nccc4ccc(C(=O)NC5CCCCC5)cc34)CC2)cc1 | 771 |
| COc1ccc(-c2onc(C)c2C)cc1S(=O)(=O)N1CCN(c2ccccn2)CC1 | 683 |
| CCn1cc(C2=CCN(C(=O)NCc3ccc(OC)cc3)CC2)c2cccnc21 | 858 |
| O=C(Nc1ccc(F)c(Cl)c1)N1CCC(N2CCN(Cc3cccc(F)c3)C(=O)C2=O)CC1 | 798 |
| CC(C)C(=O)Nc1c(-c2ccc(F)cc2)nc2ccccn12 | 602 |
| O=C(NCC(=O)N1CCCc2ccccc21)c1ccccc1Cl | 835 |
| CCOc1cc(C(=O)NC2CCN(c3cc(-c4ccccc4)[nH]n3)C2)cc(OCC)c1OCC (configuration not stated) | 822 |
| COc1ccc(NC(=O)Cn2ccc3ccn(Cc4ccccc4)c3c2=O)cc1OC | 859 |
| CCC(C)(C)C(=O)NC1CCN(C2=NS(=O)(=O)C(c3ccc(C(C)C)cc3)=C2C)CC1 | 1020 |
| N#Cc1cccc(C(=O)N2CCCn3nc(-c4cccs4)cc3C2)c1 | 720 |

* * *

measurement-notes: gradient 5% acetonitrile 3 min, to 50% in 2 min, to 85% in 15 min, held 3 min, 100 µL/min
protocol-conditions: column: Zorbax Extend-C18 2.1 x 50 mm; eluents: water / acetonitrile, 0.1% formic acid
Binning of RP-LC retention time into classes: class 0 (below 700 s), class 1 (700 s to below 1000 s), class 2 (1000 s or more)

| compound | label |
| --- | --- |
| CCC(C)NC(=O)c1cc2c(s1)CCN(C(=O)c1ccc(F)cc1)C2 (configuration not stated) | class 1 |
| CCC1Oc2ccc(S(=O)(=O)N3CCC(C(=O)Nc4cccc(C)c4)CC3)cc2NC1=O (configuration not stated) | class 1 |
| COc1ccc(Cl)cc1NC(=O)N1CCC(COCc2ccccc2)CC1 | class 2 |
| Cn1c(C(=O)NCc2ccccc2)cc2ccncc21 | class 0 |
| Cc1ccccc1-c1noc(CCc2nnc3ccc(N4CCN(c5ccc(F)cc5)CC4)nn23)n1 | class 2 |
| O=C(NCc1ccc(N2CCOCC2)nc1)c1ccc(C(F)(F)F)cc1 | class 0 |
| Cc1ccc(Nc2c(-c3ccc(N(C)C)cc3)nc3ncccn23)cc1Cl | class 1 |
| CCc1ccc(CNC(=O)Cc2nnc(-c3cnccn3)o2)cc1 | class 1 |
| COc1ccc(-c2cc3c(=O)n(Cc4noc(CN(C)C5CCCCC5)n4)ccn3n2)cc1 | class 0 |
| Cn1cncc1C(=O)N1CC(F)(F)C[C@H]1c1nc(C2CC2)no1 | class 0 |
| CN(C)S(=O)(=O)N1CCC2(CC1)CN(c1cccc(F)c1)C2c1ccccc1 (configuration not stated) | class 2 |

* * *

Measured RP-LC retention time of individual entries
measurement-notes: gradient 5% acetonitrile 3 min, to 50% in 2 min, to 85% in 15 min, held 3 min, 100 µL/min
protocol-conditions: column: Zorbax Extend-C18 2.1 x 50 mm; eluents: water / acetonitrile, 0.1% formic acid
assay-endpoint: RP-LC retention time (s)

| molecule | measurement-units | measured-number |
| --- | --- | --- |
| COCCc1nnc(NC(=O)C2c3ccccc3Oc3ccccc32)o1 | s | 718 |
| CCN1C(=O)c2cccnc2Sc2cc(C(=O)NCc3ccccc3)ccc21 | s | 780 |
| Cc1csc(-c2cc(S(=O)(=O)NCCN(C)C)cn2CC(=O)N2CCCCC2)n1 | s | 630 |
| c1cn(-c2ccc(-c3noc(-c4ccc5c(c4)OCO5)n3)cn2)cn1 | s | 853 |
| Cc1ccc(NC(=O)N2CC(c3nc(C)no3)C3(CCOCC3)C2)cc1 (configuration not stated) | s | 716 |
| Cc1ccc(N2CCC(NC(=O)c3ccccc3C(F)(F)F)C2=O)cc1 (configuration not stated) | s | 885 |
| CCOc1ccc2ncc(S(=O)(=O)c3ccc(C)c(C)c3)c(N3CCN(CC)CC3)c2c1 | s | 693 |
| Cc1cccc(-c2nc(C)c3c(n2)N(Cc2ccco2)C(=O)CC3)c1 | s | 1110 |
| COc1ccccc1N1CCN(c2cc(SCC(=O)Nc3ccc(F)cc3C)ncn2)CC1 | s | 959 |
| COc1ccc(NC(=O)C2CCCN(c3nccnc3Sc3ccccc3)C2)cc1 (configuration not stated) | s | 1030 |
| Cc1ccc(Cn2c(N3CCCC(C(=O)Nc4ccc(C)cc4)C3)nc3ccsc3c2=O)cc1 (configuration not stated) | s | 1080 |
| O=C(NCC1CCOCC1)c1ccc2ccccc2n1 | s | 782 |
